molecular target: PI3K p110δ/p85α (human) (Homo sapiens (Human), UniProt O00329); assay: PI3K p110δ/p85α (human), non-radioactive assay (HTRF); settings: read-out: IC50 (PI3Kdelta)
Sequence (O00329 whole entry): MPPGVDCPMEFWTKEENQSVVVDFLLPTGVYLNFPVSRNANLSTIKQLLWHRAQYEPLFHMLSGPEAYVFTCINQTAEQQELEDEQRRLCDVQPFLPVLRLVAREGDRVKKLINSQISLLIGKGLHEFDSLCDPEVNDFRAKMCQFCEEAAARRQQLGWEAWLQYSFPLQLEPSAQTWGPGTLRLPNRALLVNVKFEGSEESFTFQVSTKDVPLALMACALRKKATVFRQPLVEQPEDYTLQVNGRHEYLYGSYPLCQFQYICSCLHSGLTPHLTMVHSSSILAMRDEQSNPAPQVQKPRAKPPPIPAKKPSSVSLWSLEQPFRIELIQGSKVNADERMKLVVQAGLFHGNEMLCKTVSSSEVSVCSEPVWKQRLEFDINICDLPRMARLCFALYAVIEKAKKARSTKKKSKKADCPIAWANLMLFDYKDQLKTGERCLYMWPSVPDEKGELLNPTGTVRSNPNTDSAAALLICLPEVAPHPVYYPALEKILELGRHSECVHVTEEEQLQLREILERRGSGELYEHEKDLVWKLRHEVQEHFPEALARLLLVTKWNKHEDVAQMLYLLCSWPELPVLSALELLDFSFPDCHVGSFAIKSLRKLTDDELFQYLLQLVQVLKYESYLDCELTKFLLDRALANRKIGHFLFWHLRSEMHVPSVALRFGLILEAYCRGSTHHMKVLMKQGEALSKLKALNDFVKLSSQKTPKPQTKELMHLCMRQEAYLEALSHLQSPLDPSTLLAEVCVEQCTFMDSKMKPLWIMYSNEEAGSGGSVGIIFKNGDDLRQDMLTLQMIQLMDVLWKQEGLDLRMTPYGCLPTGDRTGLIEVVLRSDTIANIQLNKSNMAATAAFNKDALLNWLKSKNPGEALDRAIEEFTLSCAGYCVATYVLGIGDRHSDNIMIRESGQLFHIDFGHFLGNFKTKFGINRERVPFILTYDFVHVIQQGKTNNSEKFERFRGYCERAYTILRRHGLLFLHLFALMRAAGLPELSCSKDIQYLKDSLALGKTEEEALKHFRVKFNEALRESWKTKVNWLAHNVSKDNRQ
Sequence (P27986 whole entry partner): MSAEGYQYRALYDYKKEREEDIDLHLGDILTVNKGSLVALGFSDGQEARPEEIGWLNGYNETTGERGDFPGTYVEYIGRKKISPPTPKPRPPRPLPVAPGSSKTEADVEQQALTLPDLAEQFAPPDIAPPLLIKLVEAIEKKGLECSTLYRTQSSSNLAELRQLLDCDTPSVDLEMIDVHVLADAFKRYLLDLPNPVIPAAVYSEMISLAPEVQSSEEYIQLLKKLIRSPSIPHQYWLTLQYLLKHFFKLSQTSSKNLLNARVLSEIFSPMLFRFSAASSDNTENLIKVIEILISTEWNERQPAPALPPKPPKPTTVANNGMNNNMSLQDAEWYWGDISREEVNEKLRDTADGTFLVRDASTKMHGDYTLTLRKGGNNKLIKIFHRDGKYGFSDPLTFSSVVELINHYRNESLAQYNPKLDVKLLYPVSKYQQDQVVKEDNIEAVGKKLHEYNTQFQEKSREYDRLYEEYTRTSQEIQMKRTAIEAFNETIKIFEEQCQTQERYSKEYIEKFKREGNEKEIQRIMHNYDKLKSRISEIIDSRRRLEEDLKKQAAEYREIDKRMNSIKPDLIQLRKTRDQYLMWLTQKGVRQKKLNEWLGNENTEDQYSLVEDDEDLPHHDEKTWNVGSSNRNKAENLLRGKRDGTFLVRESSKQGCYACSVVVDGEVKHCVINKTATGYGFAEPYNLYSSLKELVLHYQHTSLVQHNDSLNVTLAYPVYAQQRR
Overview of recorded IC50 for various compounds
assay_endpoint: IC50

* COc1cc2ncc3c(c2cc1-c1cnn(C)c1)n(-c1ccnn1C)c(=O)n3C [Compound Example 49] | > 30 µM
* COc1cc2ncc3c(c2cc1-c1cn[nH]c1)n(-c1c(C)cncc1F)c(=O)n3C [Compound Example 8] | > 30 µM
* COc1cc2ncc3c(c2cc1-c1cn[nH]c1)n(-c1ncc(C)cc1F)c(=O)n3C [Compound Example 20] | > 30 µM
* COc1cc2ncc3c(c2cc1-c1cnn(C)c1)n(-c1ccncc1C)c(=O)n3C [Compound Example 40] | > 30 µM
* COc1cc2ncc3c(c2cc1-c1cc(C)[nH]n1)n(-c1ncccc1F)c(=O)n3C [Compound Example 29] | > 30 µM
* COc1cc2ncc3c(c2cc1-c1cn[nH]c1)n(-c1c(F)cncc1F)c(=O)n3C [Compound Example 2] | > 30 µM
* COc1cc2ncc3c(c2cc1-c1cn(C)nc1C)n(-c1ncccc1F)c(=O)n3C [Compound Example 16] | > 30 µM
* COc1cc2ncc3c(c2cc1-c1cn[nH]c1)n(-c1ccncc1C)c(=O)n3C [Compound Example 19] | > 30 µM
* CCn1cc(-c2cc3c(cc2OC)ncc2c3n(-c3ccncc3C)c(=O)n2C)cn1 [Compound Example 34] | > 30 µM
* COc1cc2ncc3c(c2cc1-c1cnn(C)c1)n(-c1cncnc1)c(=O)n3C [Compound Example 57] | > 30 µM
* CCn1cc(-c2cc3c(cc2OC)ncc2c3n(-c3c(F)cncc3F)c(=O)n2C)cn1 [Compound Example 26] | > 30 µM
* COc1cc2ncc3c(c2cc1-c1cnn(C)c1)n(-c1ccncc1C#N)c(=O)n3C [Compound Example 46] | > 30 µM
* COc1cc2ncc3c(c2cc1-c1cn(C)nc1C)n(-c1c(C)cncc1F)c(=O)n3C [Compound Example 39] | > 30 µM
* COc1cc2ncc3c(c2cc1-c1cnn(C)c1)n(-c1cnn(C2CCOCC2)c1)c(=O)n3C [Compound Example 55] | > 30 µM
* COc1cc2ncc3c(c2cc1-c1cnn(C)c1)n(-c1c(F)cncc1OC)c(=O)n3C [Compound Example 15] | > 30 µM
* COc1cc2ncc3c(c2cc1-c1cn(C)nc1C)n(-c1ncc(F)cc1F)c(=O)n3C [Compound Example 11] | > 30 µM

---

biological target: purified human recombinant ATM (ataxia telangiectasia mutated), full length (Homo sapiens (Human), UniProt Q13315); test: ATM kinase assay - determination of ATM inhibition (IC50 ATM), TR-FRET; assay type: biochemical; details: 10 μM ATP, substrate p53
Sequence (Q13315 whole entry, change not shown): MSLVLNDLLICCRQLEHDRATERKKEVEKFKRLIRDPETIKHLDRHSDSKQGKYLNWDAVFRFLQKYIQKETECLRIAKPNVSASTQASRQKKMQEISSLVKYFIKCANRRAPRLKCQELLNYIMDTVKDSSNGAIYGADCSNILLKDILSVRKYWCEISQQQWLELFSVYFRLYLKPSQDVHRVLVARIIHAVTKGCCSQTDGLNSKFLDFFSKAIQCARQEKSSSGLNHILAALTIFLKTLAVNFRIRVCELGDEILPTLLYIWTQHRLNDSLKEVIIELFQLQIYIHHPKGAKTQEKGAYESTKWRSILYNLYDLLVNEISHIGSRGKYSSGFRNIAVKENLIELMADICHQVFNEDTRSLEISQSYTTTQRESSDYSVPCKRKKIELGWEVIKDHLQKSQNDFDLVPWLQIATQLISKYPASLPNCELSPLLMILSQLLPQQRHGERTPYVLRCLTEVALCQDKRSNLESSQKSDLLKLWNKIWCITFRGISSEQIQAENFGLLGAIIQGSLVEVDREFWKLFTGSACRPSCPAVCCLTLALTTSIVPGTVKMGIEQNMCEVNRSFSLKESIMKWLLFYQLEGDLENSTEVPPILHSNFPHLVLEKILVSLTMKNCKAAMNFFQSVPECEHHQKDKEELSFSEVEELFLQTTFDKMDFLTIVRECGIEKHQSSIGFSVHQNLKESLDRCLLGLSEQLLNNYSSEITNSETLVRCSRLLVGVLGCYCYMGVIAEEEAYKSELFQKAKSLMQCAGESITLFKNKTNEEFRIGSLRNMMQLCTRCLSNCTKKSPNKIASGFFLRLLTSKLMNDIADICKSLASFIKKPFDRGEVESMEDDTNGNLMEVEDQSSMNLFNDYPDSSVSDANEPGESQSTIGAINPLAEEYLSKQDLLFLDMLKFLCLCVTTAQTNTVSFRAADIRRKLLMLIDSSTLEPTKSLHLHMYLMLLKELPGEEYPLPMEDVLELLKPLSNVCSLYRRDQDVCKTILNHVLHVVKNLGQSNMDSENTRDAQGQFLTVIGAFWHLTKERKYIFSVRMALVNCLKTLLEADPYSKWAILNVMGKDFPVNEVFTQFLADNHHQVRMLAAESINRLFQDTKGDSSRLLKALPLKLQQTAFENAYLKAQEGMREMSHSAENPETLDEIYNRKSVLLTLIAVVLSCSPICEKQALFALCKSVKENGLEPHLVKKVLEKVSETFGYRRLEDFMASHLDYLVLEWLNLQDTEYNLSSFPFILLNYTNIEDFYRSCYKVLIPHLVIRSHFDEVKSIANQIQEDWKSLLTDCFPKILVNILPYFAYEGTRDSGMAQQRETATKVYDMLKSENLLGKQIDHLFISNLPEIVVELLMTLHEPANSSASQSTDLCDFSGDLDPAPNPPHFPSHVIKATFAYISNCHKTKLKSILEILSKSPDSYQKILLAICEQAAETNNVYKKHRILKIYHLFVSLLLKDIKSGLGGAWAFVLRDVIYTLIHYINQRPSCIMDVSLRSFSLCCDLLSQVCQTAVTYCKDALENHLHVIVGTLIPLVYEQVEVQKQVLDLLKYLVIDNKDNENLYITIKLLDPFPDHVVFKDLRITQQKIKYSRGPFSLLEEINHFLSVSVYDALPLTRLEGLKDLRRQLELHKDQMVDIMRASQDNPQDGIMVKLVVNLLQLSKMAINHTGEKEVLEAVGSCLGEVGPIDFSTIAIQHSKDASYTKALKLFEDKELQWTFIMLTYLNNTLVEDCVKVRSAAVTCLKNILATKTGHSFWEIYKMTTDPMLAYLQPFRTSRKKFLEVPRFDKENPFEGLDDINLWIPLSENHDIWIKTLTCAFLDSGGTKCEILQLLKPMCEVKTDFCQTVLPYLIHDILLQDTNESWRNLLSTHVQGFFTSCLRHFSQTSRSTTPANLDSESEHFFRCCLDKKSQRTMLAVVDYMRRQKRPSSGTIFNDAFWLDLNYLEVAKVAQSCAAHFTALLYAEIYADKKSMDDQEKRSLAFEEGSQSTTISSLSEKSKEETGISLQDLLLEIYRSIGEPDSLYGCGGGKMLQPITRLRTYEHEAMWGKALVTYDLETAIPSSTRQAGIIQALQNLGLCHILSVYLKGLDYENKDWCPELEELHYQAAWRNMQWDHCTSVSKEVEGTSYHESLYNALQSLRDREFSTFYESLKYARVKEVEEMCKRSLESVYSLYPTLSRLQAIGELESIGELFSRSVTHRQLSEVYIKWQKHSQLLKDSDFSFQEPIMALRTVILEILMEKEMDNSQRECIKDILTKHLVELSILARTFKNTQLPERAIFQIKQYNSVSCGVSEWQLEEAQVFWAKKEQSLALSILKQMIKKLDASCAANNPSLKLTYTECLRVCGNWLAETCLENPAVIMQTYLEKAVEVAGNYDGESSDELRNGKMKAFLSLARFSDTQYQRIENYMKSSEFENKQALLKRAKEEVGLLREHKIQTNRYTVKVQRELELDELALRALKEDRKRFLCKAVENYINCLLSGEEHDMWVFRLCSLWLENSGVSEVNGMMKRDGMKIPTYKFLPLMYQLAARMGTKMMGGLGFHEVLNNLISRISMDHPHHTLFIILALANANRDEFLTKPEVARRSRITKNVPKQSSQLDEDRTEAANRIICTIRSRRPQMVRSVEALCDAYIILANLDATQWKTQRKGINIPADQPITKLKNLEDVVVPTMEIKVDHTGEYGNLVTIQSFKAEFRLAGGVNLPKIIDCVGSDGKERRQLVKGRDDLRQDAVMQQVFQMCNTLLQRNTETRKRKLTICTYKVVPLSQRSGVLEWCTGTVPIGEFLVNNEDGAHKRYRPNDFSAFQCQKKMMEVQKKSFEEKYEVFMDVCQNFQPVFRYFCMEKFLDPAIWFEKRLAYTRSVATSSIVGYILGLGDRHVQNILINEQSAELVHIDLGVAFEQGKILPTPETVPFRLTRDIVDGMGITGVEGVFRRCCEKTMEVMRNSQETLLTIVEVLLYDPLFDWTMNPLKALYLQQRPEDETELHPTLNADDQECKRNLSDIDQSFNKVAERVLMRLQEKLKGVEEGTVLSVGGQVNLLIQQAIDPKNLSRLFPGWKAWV
pIC50: −log10 of the molar value.
Overview of recorded pIC50 for various molecules
assay_endpoint: pIC50

• COc1cc2ncc3c(c2cc1-c1cnn(C)n1)n(-c1ncc(F)cc1F)c(=O)n3C [compound 101] = > 7.30
• COc1cc2ncc3c(c2cc1-c1cnn(C)c1)n(-c1cc2[nH]ccc2cn1)c(=O)n3C [compound 120] = > 9.00
• COc1cc2ncc3c(c2cc1-c1c[nH]nc1C)n(-c1ncc(F)cc1F)c(=O)n3C [compound 117] = > 8.00
• COc1cnc(-n2c(=O)n(C)c3cnc4cc(OC)c(-c5cnn[nH]5)cc4c32)c(F)c1 [compound 128] = > 8.00
• COc1cc2ncc3c(c2cc1-c1cn(C)nn1)n(-c1c(C)cncc1F)c(=O)n3C [compound 63] = > 8.00
• COc1cc2ncc3c(c2cc1-c1cnn(C)c1)n(-c1ncc(Cl)cc1F)c(=O)n3C [compound 119] = > 9.00
• COc1cc2ncc3c(c2cc1-c1cnn(C)c1)n(-c1cn(C)nc1F)c(=O)n3C [compound 141] = > 8.00
• CCc1cnccc1-n1c(=O)n(C)c2cnc3cc(OC)c(-c4cnn(C)c4)cc3c21 [compound 156] = > 9.00

---

Overview of recorded IC50 for various compounds
target: purified human recombinant ATM (ataxia telangiectasia mutated), full length (Homo sapiens (Human)); assay: ATM kinase assay - determination of ATM inhibition (IC50 ATM), TR-FRET; format: biochemical
assay_endpoint: IC50

• COc1cc2ncc3c(c2cc1-c1cnn(C)c1)n(-c1ccncc1)c(=O)n3C [compound 58] = < 10 nM
• COc1cc2ncc3c(c2cc1-c1cn(C)nc1C)n(-c1cn(C)nc1C)c(=O)n3C [Compound Example 10] = < 1 nM
• COc1cc2ncc3c(c2cc1-c1cn[nH]c1)n(-c1csc(C)n1)c(=O)n3C [Compound Example 30] = < 10 nM
• COc1cc2ncc3c(c2cc1-c1cnn(C)c1)n(-c1ncc(C)cc1F)c(=O)n3C [Compound Example 27] = < 1 nM

---

biological target: purified human recombinant ATM (ataxia telangiectasia mutated), full length (Homo sapiens (Human)); experiment: ATM kinase assay - determination of ATM inhibition (IC50 ATM), TR-FRET; type: biochemical; settings: 10 μM ATP, substrate p53
pIC50: −log10 of the molar value.
assay_endpoint: pIC50

- COc1cc2ncc3c(c2cc1-c1cn(C)nc1C)n(-c1ncc(OCS(C)(=O)=O)cc1F)c(=O)n3C: > 9.00
- COc1cc2ncc3c(c2cc1-c1ccn[nH]1)n(-c1c(F)cncc1OC)c(=O)n3C: > 7.30
- COc1cc2ncc3c(c2cc1-c1cnn(C)c1)n(-c1c(F)cncc1C1CC1)c(=O)n3C: > 9.00
- CCOc1cnc(-n2c(=O)n(C)c3cnc4cc(OC)c(-c5cnn(C)c5)cc4c32)c(F)c1: > 9.00
- COc1cc2ncc3c(c2cc1-c1cnn(C)c1)n(-c1c(F)cncc1C#N)c(=O)n3C: > 8.00
- COc1cc2ncc3c(c2cc1-c1cn[nH]c1)n(-c1c(C)cncc1F)c(=O)n3C: > 9.00
- [2H]C([2H])([2H])Oc1cncc(F)c1-n1c(=O)n(C)c2cnc3cc(OC)c(-c4cnn(C)c4)cc3c21: > 9.00

---

pIC50: −log10 of the molar value.
Target or system mTOR (human) (Homo sapiens (Human), UniProt P42345): recorded pIC50 listed per item.
assay_endpoint: pIC50

- CCn1cc(-c2cc3c(cc2OC)ncc2c3n(-c3cn(C)nc3C)c(=O)n2C)cn1: < 5.30
- COc1cc2ncc3c(c2cc1-c1cn(C)nc1C)n(-c1c(C)cncc1F)c(=O)n3C: < 4.52
- COc1cc2ncc3c(c2cc1-c1cnn(C)c1)n(-c1c(F)cncc1C#N)c(=O)n3C: < 4.52
- COc1cc2ncc3c(c2cc1-c1cnn(C)c1)n(-c1c[nH]nc1C)c(=O)n3C: < 4.52
- COc1cc2ncc3c(c2cc1-c1cnn(C)c1)n(-c1ccnn1C)c(=O)n3C: < 4.52
- CCn1cc(-c2cc3c(cc2OC)ncc2c3n(-c3ccncc3C)c(=O)n2C)cn1: < 4.52
- COc1cc2ncc3c(c2cc1-c1cnn(C)c1)n(-c1ncccc1F)c(=O)n3C: < 4.52
- COc1cc2ncc3c(c2cc1-c1cc(C)[nH]n1)n(-c1ncccc1F)c(=O)n3C: < 4.52
- COc1cc2ncc3c(c2cc1-c1cn[nH]c1)n(-c1ncccc1F)c(=O)n3C: < 4.52
- COc1cc2ncc3c(c2cc1-c1cn[nH]c1)n(-c1cnn(C2CCOCC2)c1)c(=O)n3C: < 5.00
- COc1cc2ncc3c(c2cc1-c1cnn(C)c1)n(-c1cn(C)nc1C)c(=O)n3C: < 4.52
- COc1cc2ncc3c(c2cc1-c1cnn(C)c1)n(-c1cn[nH]c1)c(=O)n3C: < 4.52
- COc1cc2ncc3c(c2cc1-c1cn(C)nn1)n(-c1ncccc1F)c(=O)n3C: < 4.52
- COc1cc2ncc3c(c2cc1-c1cn(C)nc1C)n(-c1ncccc1F)c(=O)n3C: < 4.52
- COc1cc2ncc3c(c2cc1-c1cnn(C)c1)n(-c1c(C)cncc1F)c(=O)n3C: < 5.30
- CCc1cncc(C)c1-n1c(=O)n(C)c2cnc3cc(OC)c(-c4cnn(CC)c4)cc3c21: < 4.52

---

target: purified human recombinant ATM (ataxia telangiectasia mutated), full length (Homo sapiens (Human), UniProt Q13315); assay: ATM kinase assay - determination of ATM inhibition (IC50 ATM), TR-FRET; format: biochemical; settings: 10 μM ATP, substrate p53
pIC50: −log10 of the molar value.
Overview of recorded pIC50 for various compounds
assay_endpoint: pIC50

• CCn1cc(-n2c(=O)n(C)c3cnc4cc(OC)c(-c5cn(C)nc5C)cc4c32)c(C)n1 [compound 135] = > 9.00
• COc1cc2ncc3c(c2cc1-c1cc[nH]n1)n(-c1cn(C)nc1C)c(=O)n3C [compound 121] = > 8.00
• COc1cc2ncc3c(c2cc1-c1cnn(C)c1)n(-c1ccnc(C#N)c1)c(=O)n3C [Compound Example 45] = > 7.30
• COc1cc2ncc3c(c2cc1-c1cn[nH]c1)n(-c1ccncc1F)c(=O)n3C [Compound Example 9] = > 9.00
• COc1ccc(-c2cc3c(cc2OC)ncc2c3n(-c3cn(C)nc3F)c(=O)n2C)cn1 [compound 159] = > 8.00
• COc1cc2ncc3c(c2cc1-c1cnn(C)c1)n(-c1nccs1)c(=O)n3C [Compound Example 47] = > 8.00
• [2H]C([2H])([2H])Oc1cnc(-n2c(=O)n(C)c3cnc4cc(OC)c(-c5cnn(C)c5)cc4c32)c(F)c1 [compound 155] = > 9.00
• CCn1cc(-c2cc3c(cc2OC)ncc2c3n(-c3ncccc3F)c(=O)n2C)cn1 [Compound Example 24] = > 9.00
• COc1cc2ncc3c(c2cc1-c1cnc2nc(C)[nH]c2c1)n(-c1c(F)cncc1OC)c(=O)n3C [compound 152] = > 9.00
• COc1cc2ncc3c(c2cc1-c1cnn(C)c1)n(-c1c[nH]nc1C)c(=O)n3C [Compound Example 43] = > 9.00
• COc1cc2ncc3c(c2cc1-c1cn[nH]c1)n(-c1ccncc1OC)c(=O)n3C [Compound Example 32] = > 8.00
• COc1cc2ncc3c(c2cc1-c1ccc2nc(C)[nH]c2c1)n(-c1c(F)cncc1OC)c(=O)n3C [compound 136] = > 9.00
• COc1cc2ncc3c(c2cc1-c1cnn(C)n1)n(-c1c(F)cncc1OC)c(=O)n3C [compound 127] = > 8.00
• COc1cnc(-n2c(=O)[nH]c3cnc4cc(OC)c(-c5cnn(C)c5)cc4c32)c(F)c1 [compound 115] = > 8.00
• COc1cc2ncc3c(c2cc1-c1cnn(C)c1)n(-c1ccnn1C)c(=O)n3C [Compound Example 49] = > 8.00
• COc1cc2ncc3c(c2cc1-c1cnn(C)c1)n(-c1ccccn1)c(=O)n3C [Compound Example 56] = > 8.00
• COc1cc2ncc3[nH]c(=O)n(-c4ncc(F)cc4F)c3c2cc1-c1cn(C)nc1C [compound 108] = > 9.00
• COc1cc2ncc3c(c2cc1-c1cnn(C)c1)n(-c1c(C)cncc1F)c(=O)n3C [Compound Example 18] = > 8.00
• CCc1cncc(F)c1-n1c(=O)n(C)c2cnc3cc(OC)c(-c4cnn(CC)c4)cc3c21 [Compound Example 25] = > 9.00
• COc1cc2ncc3c(c2cc1-c1cnn(C)c1)n(-c1c(F)cncc1OC)c(=O)n3C [Compound Example 15] = > 9.00
• CCc1cncc(F)c1-n1c(=O)n(C)c2cnc3cc(OC)c(-c4cn[nH]n4)cc3c21 [compound 125] = > 9.00
• COc1cc2ncc3c(c2cc1-c1cnn(C)c1)n(-c1ncc(OCC2CN(C)C2)cc1F)c(=O)n3C [compound 207] = > 8.00
• CCc1cncc(F)c1-n1c(=O)n(C)c2cnc3cc(OC)c(-c4cn(C)nn4)cc3c21 [compound 126] = > 8.00
• COc1cc2ncc3c(c2cc1-c1cc(N)n[nH]1)n(-c1ncccc1F)c(=O)n3C [compound 65] = > 9.00
• COc1cc2ncc3c(c2cc1-c1cnn(C)c1)n(-c1ncc(F)cc1F)c(=O)n3C [Compound Example 1] = > 8.00
• CNCCOc1cnc(-n2c(=O)n(C)c3cnc4cc(OC)c(-c5cnn(C)c5)cc4c32)c(F)c1 [compound 206] = > 8.00
• COc1cc2ncc3c(c2cc1-c1cnn(C)c1)n(-c1c(F)cncc1OC(F)F)c(=O)n3C [compound 146] = > 9.00
• CCn1cc(-c2cc3c(cc2OC)ncc2c3n(-c3ccncc3)c(=O)n2C)cn1 [compound 62] = > 8.00
• COc1cc2ncc3c(c2cc1-c1cnn(C(F)F)c1)n(-c1c(F)cncc1OC)c(=O)n3C [compound 143] = > 9.00
• COc1cc2ncc3c(c2cc1-c1cnn(C)c1)n(-c1ccncc1Cl)c(=O)n3C [compound 60] = > 8.00
• COc1cc2ncc3c(c2cc1-c1cnn(C)c1)n(-c1cn(C)nc1C)c(=O)n3C [Compound Example 5] = > 9.00
